study_system: BMPR1B (UniProt O00238)
Sequence (O00238 whole entry): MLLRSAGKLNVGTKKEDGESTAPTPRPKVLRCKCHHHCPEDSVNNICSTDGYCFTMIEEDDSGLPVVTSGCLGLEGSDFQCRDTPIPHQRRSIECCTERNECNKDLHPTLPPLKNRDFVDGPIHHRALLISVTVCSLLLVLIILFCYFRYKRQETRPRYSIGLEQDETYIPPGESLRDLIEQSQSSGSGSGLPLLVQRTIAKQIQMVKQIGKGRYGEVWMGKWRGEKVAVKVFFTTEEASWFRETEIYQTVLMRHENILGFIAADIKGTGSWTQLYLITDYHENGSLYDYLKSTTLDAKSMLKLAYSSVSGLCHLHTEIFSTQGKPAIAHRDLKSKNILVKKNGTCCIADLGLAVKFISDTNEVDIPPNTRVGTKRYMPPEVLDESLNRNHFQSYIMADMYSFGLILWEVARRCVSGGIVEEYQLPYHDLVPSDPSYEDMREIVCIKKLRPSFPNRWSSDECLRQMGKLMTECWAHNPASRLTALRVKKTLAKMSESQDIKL
protocol_notes: pIC50, kinobeads binding competition
measurement_context: cell material: Lysate mix
What pIC50 was measured for each of the following?

Fill in: pIC50 of C#CCNC(=O)c1cc(Nc2cc(C3CC3)[nH]n2)nc(N2CCN(Cc3ccc(S(=O)(=O)F)cc3)CC2)n1 is ___ 4.78

I am curious: what pIC50 value has been reported for CCNC(=O)c1cc(Nc2cc(C)[nH]n2)nc(N2CCN(Cc3ccc(S(=O)(=O)F)cc3)CC2)n1 ? < 4.52

Quick one: pIC50 for O=C(NCCNC(=O)c1cc(Nc2cc(C3CC3)[nH]n2)nc(N2CCN(Cc3ccc(S(=O)(=O)F)cc3)CC2)n1)OC1CC/C=C/CCC1 (stereo unspecified) ? < 4.52

For the molecule C#CCNC(=O)c1cc(Nc2cc(C)[nH]n2)nc(N2CCN(Cc3ccc(S(=O)(=O)F)cc3)CC2)n1 , what pIC50 is on record? < 4.52

Form field: reported pIC50 of Cc1cc(Nc2cc(C(=O)NCCNC(=O)OC3CC/C=C/CCC3)nc(N3CCN(Cc4ccc(S(=O)(=O)F)cc4)CC3)n2)n[nH]1 (stereo unspecified) < 4.52

What value of pIC50 has been reported for the following molecule? CCNC(=O)c1cc(Nc2cc(C3CC3)[nH]n2)nc(N2CCN(Cc3ccc(S(=O)(=O)F)cc3)CC2)n1 5.08

###

study_system: MAP4K2 (UniProt Q12851)
Sequence (Q12851 whole entry): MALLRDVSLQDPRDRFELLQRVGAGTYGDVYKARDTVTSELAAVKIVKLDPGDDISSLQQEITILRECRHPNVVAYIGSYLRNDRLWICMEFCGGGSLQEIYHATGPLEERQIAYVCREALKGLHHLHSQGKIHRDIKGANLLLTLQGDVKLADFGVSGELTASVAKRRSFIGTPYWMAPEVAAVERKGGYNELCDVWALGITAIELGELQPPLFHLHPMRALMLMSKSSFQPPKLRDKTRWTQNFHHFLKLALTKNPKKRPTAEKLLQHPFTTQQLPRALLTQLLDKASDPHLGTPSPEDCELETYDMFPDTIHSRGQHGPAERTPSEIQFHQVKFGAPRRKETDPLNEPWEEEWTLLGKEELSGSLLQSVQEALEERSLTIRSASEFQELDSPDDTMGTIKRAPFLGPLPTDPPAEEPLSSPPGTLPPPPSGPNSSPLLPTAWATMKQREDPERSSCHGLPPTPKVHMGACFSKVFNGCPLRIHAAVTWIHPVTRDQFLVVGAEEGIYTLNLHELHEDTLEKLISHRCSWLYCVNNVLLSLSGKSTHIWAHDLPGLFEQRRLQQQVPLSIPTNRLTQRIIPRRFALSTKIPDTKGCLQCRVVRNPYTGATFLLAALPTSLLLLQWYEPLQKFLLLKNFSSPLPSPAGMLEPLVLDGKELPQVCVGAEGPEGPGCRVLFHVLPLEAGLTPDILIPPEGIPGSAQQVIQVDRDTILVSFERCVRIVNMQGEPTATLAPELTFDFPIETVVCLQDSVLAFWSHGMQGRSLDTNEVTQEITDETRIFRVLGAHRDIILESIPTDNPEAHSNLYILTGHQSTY
protocol_notes: pIC50, kinobeads binding competition
measurement_context: cell material: Lysate mix
quantity_measured: pIC50
Lab note: jot the number down without any unit.

Item C#CCNC(=O)c1cc(Nc2cc(C)[nH]n2)nc(N2CCN(Cc3ccc(S(=O)(=O)F)cc3)CC2)n1 has what recorded pIC50? 4.81

Recorded pIC50 of CCNC(=O)c1cc(Nc2cc(C)[nH]n2)nc(N2CCN(Cc3ccc(S(=O)(=O)F)cc3)CC2)n1 , please. 4.7

Which pIC50 value belongs to C#CCNC(=O)c1cc(Nc2cc(C3CC3)[nH]n2)nc(N2CCN(Cc3ccc(S(=O)(=O)F)cc3)CC2)n1 ? 5.36

Given CCNC(=O)c1cc(Nc2cc(C3CC3)[nH]n2)nc(N2CCN(Cc3ccc(S(=O)(=O)F)cc3)CC2)n1 , state its recorded pIC50. 4.88

###

study_system: STK33 (UniProt Q9BYT3)
Sequence (Q9BYT3 whole entry, looked up): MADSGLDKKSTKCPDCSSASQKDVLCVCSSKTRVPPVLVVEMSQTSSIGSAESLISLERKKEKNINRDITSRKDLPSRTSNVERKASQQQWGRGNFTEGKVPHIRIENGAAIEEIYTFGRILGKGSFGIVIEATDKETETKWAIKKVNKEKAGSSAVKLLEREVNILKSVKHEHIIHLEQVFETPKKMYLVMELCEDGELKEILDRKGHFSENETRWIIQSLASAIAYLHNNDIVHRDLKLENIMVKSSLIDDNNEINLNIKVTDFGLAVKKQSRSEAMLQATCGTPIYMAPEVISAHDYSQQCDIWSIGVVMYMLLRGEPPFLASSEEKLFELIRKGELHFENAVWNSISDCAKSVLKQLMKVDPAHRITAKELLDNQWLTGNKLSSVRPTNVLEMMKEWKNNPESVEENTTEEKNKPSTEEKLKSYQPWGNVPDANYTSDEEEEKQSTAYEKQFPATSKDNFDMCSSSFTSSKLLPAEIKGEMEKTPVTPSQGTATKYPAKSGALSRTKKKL
protocol_notes: pIC50, kinobeads binding competition
measurement_context: cell material: Lysate mix
What pIC50 was measured for each of the following?

For the record CCNC(=O)c1cc(Nc2cc(C)[nH]n2)nc(N2CCN(Cc3ccc(S(=O)(=O)F)cc3)CC2)n1 , what value of pIC50 is listed for STK33 (UniProt Q9BYT3)? < 4.52

# returns recorded pIC50 (system: STK33 (UniProt Q9BYT3)) for Cc1cc(Nc2cc(C(=O)NCCNC(=O)OC3CC/C=C/CCC3)nc(N3CCN(Cc4ccc(S(=O)(=O)F)cc4)CC3)n2)n[nH]1 (stereo unspecified) < 4.52

Request body: readout pIC50, system STK33 (UniProt Q9BYT3), query C#CCNC(=O)c1cc(Nc2cc(C3CC3)[nH]n2)nc(N2CCN(Cc3ccc(S(=O)(=O)F)cc3)CC2)n1 . Return the value. 5.82

Short answer please: pIC50, STK33 (UniProt Q9BYT3), entry CCNC(=O)c1cc(Nc2cc(C3CC3)[nH]n2)nc(N2CCN(Cc3ccc(S(=O)(=O)F)cc3)CC2)n1 5.67

Lab note: need pIC50 for O=C(NCCNC(=O)c1cc(Nc2cc(C3CC3)[nH]n2)nc(N2CCN(Cc3ccc(S(=O)(=O)F)cc3)CC2)n1)OC1CC/C=C/CCC1 (stereo unspecified) on STK33 (UniProt Q9BYT3), anyone have it? < 4.52

What measured pIC50 is associated with C#CCNC(=O)c1cc(Nc2cc(C)[nH]n2)nc(N2CCN(Cc3ccc(S(=O)(=O)F)cc3)CC2)n1 on STK33 (UniProt Q9BYT3)? < 4.52

###

Exercise: state measured pIC50 for each of the molecules provided.
study_system: UniProt Q13131
Sequence (Q13131 whole entry, looked up): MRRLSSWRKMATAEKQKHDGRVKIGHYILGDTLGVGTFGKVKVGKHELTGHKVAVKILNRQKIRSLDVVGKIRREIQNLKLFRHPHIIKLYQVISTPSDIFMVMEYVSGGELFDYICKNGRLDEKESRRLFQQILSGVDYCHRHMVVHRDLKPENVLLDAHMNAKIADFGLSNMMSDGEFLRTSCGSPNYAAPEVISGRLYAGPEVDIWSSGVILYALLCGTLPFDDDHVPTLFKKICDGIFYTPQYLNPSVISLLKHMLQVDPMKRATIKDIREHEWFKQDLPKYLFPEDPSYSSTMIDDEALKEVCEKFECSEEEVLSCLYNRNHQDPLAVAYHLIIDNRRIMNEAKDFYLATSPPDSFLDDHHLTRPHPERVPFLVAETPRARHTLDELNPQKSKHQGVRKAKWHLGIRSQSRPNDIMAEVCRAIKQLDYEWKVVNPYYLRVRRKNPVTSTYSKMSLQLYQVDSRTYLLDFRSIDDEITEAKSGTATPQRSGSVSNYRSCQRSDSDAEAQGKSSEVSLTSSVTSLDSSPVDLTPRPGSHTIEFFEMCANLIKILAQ
protocol_notes: pIC50, kinobeads binding competition
measurement_context: cell material: Lysate mix

Data request, read-out pIC50, for C#CCNC(=O)c1cc(Nc2cc(C)[nH]n2)nc(N2CCN(Cc3ccc(S(=O)(=O)F)cc3)CC2)n1 6.3

Look up pIC50 for this molecule: C#CCNC(=O)c1cc(Nc2cc(C3CC3)[nH]n2)nc(N2CCN(Cc3ccc(S(=O)(=O)F)cc3)CC2)n1 7.2

Give the measured pIC50 of CCNC(=O)c1cc(Nc2cc(C3CC3)[nH]n2)nc(N2CCN(Cc3ccc(S(=O)(=O)F)cc3)CC2)n1 . 7.03

Quick one: pIC50 of Cc1cc(Nc2cc(C(=O)NCCNC(=O)OC3CC/C=C/CCC3)nc(N3CCN(Cc4ccc(S(=O)(=O)F)cc4)CC3)n2)n[nH]1 (stereo unspecified) ? 5.24

# input molecule: CCNC(=O)c1cc(Nc2cc(C)[nH]n2)nc(N2CCN(Cc3ccc(S(=O)(=O)F)cc3)CC2)n1 ; wanted: its pIC50 6.97

Need pIC50 of O=C(NCCNC(=O)c1cc(Nc2cc(C3CC3)[nH]n2)nc(N2CCN(Cc3ccc(S(=O)(=O)F)cc3)CC2)n1)OC1CC/C=C/CCC1 (stereo unspecified) , thanks. 5.56

###

study_system: UniProt O14965
Sequence (whole entry): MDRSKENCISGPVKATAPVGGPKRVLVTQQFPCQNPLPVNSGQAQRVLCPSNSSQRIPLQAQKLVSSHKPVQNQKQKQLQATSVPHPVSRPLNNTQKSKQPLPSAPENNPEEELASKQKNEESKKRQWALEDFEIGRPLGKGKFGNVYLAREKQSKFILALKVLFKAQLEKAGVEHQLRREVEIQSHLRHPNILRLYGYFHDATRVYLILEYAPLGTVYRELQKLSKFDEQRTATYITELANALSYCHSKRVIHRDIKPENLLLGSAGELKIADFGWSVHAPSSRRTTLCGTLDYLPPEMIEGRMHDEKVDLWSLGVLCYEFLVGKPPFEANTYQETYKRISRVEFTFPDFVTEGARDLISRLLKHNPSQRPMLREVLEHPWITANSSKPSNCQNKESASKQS
protocol_notes: pIC50, kinobeads binding competition
measurement_context: cell material: Lysate mix
quantity_measured: pIC50

Param item = Cc1cc(Nc2cc(C(=O)NCCNC(=O)OC3CC/C=C/CCC3)nc(N3CCN(Cc4ccc(S(=O)(=O)F)cc4)CC3)n2)n[nH]1 (stereo unspecified) ; retrieve measured pIC50. 5.39

Give its pIC50 value. Item: C#CCNC(=O)c1cc(Nc2cc(C)[nH]n2)nc(N2CCN(Cc3ccc(S(=O)(=O)F)cc3)CC2)n1 6.73

Tell me the measured pIC50 of C#CCNC(=O)c1cc(Nc2cc(C3CC3)[nH]n2)nc(N2CCN(Cc3ccc(S(=O)(=O)F)cc3)CC2)n1 , please. 7.06

Could you tell me which pIC50 is on file for O=C(NCCNC(=O)c1cc(Nc2cc(C3CC3)[nH]n2)nc(N2CCN(Cc3ccc(S(=O)(=O)F)cc3)CC2)n1)OC1CC/C=C/CCC1 (stereo unspecified) ? 5.3

Look up pIC50 for this compound: CCNC(=O)c1cc(Nc2cc(C)[nH]n2)nc(N2CCN(Cc3ccc(S(=O)(=O)F)cc3)CC2)n1 7.67

I would be grateful if you could share the reported pIC50 for CCNC(=O)c1cc(Nc2cc(C3CC3)[nH]n2)nc(N2CCN(Cc3ccc(S(=O)(=O)F)cc3)CC2)n1 . 6.86

###

study_system: Fes (UniProt P07332)
Sequence (P07332 whole entry): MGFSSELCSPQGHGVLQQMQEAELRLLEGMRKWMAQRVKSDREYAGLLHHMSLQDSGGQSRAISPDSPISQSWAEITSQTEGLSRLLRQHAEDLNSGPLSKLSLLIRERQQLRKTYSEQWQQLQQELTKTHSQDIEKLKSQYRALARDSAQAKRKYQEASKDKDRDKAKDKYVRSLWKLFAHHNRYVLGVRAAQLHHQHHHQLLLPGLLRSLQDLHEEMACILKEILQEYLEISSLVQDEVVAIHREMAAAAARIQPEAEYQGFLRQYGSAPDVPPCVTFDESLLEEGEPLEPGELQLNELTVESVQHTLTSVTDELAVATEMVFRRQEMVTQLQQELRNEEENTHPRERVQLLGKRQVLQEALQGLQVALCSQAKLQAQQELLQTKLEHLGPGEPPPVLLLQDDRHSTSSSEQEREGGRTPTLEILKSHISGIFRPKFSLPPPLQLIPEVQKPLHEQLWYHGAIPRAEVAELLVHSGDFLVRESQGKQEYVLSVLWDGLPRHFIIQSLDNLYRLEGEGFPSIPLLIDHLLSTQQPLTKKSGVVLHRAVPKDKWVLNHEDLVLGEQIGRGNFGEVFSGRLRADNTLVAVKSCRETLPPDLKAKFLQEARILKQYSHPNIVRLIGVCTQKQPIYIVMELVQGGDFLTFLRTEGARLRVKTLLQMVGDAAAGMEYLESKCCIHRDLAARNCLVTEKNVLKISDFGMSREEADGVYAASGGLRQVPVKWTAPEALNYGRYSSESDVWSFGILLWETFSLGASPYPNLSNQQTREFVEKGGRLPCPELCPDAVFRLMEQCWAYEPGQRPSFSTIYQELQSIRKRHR
protocol_notes: pIC50, kinobeads binding competition
measurement_context: cell material: Lysate mix
Could you please report measured pIC50 for the items listed next?

Item under review: Cc1cc(Nc2cc(C(=O)NCCNC(=O)OC3CC/C=C/CCC3)nc(N3CCN(Cc4ccc(S(=O)(=O)F)cc4)CC3)n2)n[nH]1 (stereo not given) . Reported pIC50? < 4.52

Which value of pIC50 has been reported for O=C(NCCNC(=O)c1cc(Nc2cc(C3CC3)[nH]n2)nc(N2CCN(Cc3ccc(S(=O)(=O)F)cc3)CC2)n1)OC1CC/C=C/CCC1 (stereo not given) in the records? < 4.52

Returns the measured pIC50 for the input molecule. Input: CCNC(=O)c1cc(Nc2cc(C)[nH]n2)nc(N2CCN(Cc3ccc(S(=O)(=O)F)cc3)CC2)n1 < 4.52

Entry C#CCNC(=O)c1cc(Nc2cc(C3CC3)[nH]n2)nc(N2CCN(Cc3ccc(S(=O)(=O)F)cc3)CC2)n1 : reported pIC50 = ? 5.24

Which pIC50 is listed for C#CCNC(=O)c1cc(Nc2cc(C)[nH]n2)nc(N2CCN(Cc3ccc(S(=O)(=O)F)cc3)CC2)n1 ? < 4.52
